# binding signal listing for each entry below
Molecular target: GST-Co-NF-kB (Capsaspora owczarzaki, UniProt F1ARL5 200-546)
Sequence: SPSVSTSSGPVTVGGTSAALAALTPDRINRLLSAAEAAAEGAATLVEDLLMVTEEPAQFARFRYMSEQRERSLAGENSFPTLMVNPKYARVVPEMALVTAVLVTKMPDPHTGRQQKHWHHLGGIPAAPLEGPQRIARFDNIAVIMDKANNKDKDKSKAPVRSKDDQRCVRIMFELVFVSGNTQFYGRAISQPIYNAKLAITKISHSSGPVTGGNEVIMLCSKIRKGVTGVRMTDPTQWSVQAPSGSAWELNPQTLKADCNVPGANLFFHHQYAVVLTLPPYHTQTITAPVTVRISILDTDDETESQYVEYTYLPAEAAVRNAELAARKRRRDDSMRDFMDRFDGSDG
Experiment: protein-binding microarray (PBM); PBM: ~300 nM protein, 6 mM HEPES pH 7.8, 80 mM KCl, 0.5 mM EDTA, 0.5 mM EGTA, 6% glycerol, 35 ng/ul poly-dIdC, 1% milk, 1 h, room temperature; high values mean tight binding
Details: dsDNA, one strand shown
Provide the reading as a plain figure in z-score.

Sample answers from the record:
| input.sequence | binding signal [z-score] |
| --- | --- |
| CCGATTAACATCAAATCGGGAAATGATGTTAATCGGGTCTTGATTCGCTTGACGCTGCTG | 2 |
| CCGATTAACATCACTCCCTAAAATGATGTTAATCGGGTCTTGATTCGCTTGACGCTGCTG | 1.22 |
| CCGATTAACATCAGGGATATCCCTGATGTTAATCGGGTCTTGATTCGCTTGACGCTGCTG | 3.18 |
| CCGATTAACATCAAATAATTCCCTGATGTTAATCGGGTCTTGATTCGCTTGACGCTGCTG | 5.48 |

Query block: Please give the measured binding signal for this sequence: CCGATTAACATCAAAAAATCCCATGATGTTAATCGGGTCTTGATTCGCTTGACGCTGCTG
Result block: 2.05

Query block: Please give the measured binding signal for this sequence: CCGATTAACATCAGATTCCCCCCTGATGTTAATCGGGTCTTGATTCGCTTGACGCTGCTG
Result block: 10

Query block: Please give the measured binding signal for this sequence: CCGATTAACATCACTCATCCCCGTGATGTTAATCGGGTCTTGATTCGCTTGACGCTGCTG
Result block: 2.78

Query block: Please give the measured binding signal for this sequence: CCGATTAACATCAGAATCTCCCCTGATGTTAATCGGGTCTTGATTCGCTTGACGCTGCTG
Result block: 6.25

Query block: Please give the measured binding signal for this sequence: CCGATTAACATCAGGGGGAATTATGATGTTAATCGGGTCTTGATTCGCTTGACGCTGCTG
Result block: 9.25

###

Target: GST-Nv-NF-kB (Cys allele) (Nematostella vectensis, UniProt E5G601 2-411)
Sequence: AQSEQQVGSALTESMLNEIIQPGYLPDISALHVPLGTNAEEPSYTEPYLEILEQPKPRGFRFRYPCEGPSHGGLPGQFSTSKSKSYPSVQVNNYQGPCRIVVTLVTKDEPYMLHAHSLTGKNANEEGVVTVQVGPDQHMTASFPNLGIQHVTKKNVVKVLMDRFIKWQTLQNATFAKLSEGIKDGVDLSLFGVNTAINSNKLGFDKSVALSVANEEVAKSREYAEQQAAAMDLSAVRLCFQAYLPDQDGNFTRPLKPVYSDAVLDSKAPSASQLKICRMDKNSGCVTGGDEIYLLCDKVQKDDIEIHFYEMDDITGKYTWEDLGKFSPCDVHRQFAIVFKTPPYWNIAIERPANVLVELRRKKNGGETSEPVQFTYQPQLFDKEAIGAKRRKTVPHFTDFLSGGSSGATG
Assay: protein-binding microarray (PBM); PBM: ~300 nM protein, 6 mM HEPES pH 7.8, 80 mM KCl, 0.5 mM EDTA, 0.5 mM EGTA, 6% glycerol, 35 ng/ul poly-dIdC, 1% milk, 1 h, room temperature; Ap Aiptasia and Nv Nematostella (sea anemones) / Co Capsaspora / Aq Amphimedon (sponge) / Dm Drosophila / Hu human; RHD is the Rel homology domain; high values mean tight binding
Conditions: dsDNA, one strand shown
# binding signal listing for each entry below
Provide the reading as a plain figure in z-score.

Sample answers from the record:
| input.sequence | binding signal [z-score] |
| --- | --- |
| CCGATTAACATCAGGGGATCTTATGATGTTAATCGGGTCTTGATTCGCTTGACGCTGCTG | 7.01 |
| CCGATTAACATCAAATTTCCCTATGATGTTAATCGGGTCTTGATTCGCTTGACGCTGCTG | 6.5 |
| CCGATTAACATCAGGGAGTTCCATGATGTTAATCGGGTCTTGATTCGCTTGACGCTGCTG | 3.31 |
| CCGATTAACATCAGGGGATACCCTGATGTTAATCGGGTCTTGATTCGCTTGACGCTGCTG | 7.45 |

Query block: Please give the measured binding signal for this sequence: CCGATTAACATCAGGAAAGTCCCTGATGTTAATCGGGTCTTGATTCGCTTGACGCTGCTG
Result block: 10.6

Query block: Please give the measured binding signal for this sequence: CCGATTAACATCAAATCATTCCCTGATGTTAATCGGGTCTTGATTCGCTTGACGCTGCTG
Result block: 3.39

Query block: Please give the measured binding signal for this sequence: CCGATTAACATCAAGGGAAAATATGATGTTAATCGGGTCTTGATTCGCTTGACGCTGCTG
Result block: 7.5

Query block: Please give the measured binding signal for this sequence: CCGATTAACATCAGGGGATCACCTGATGTTAATCGGGTCTTGATTCGCTTGACGCTGCTG
Result block: 5.39

Query block: Please give the measured binding signal for this sequence: CCGATTAACATCAGGGAATCTTATGATGTTAATCGGGTCTTGATTCGCTTGACGCTGCTG
Result block: 4.66

Entry source: paper PMC5700166
